protocol: in vivo
recordedConditions: male, NODSCID 1L2RγKO, mouse, iv, total radioactivity, Muscle uptake
observable: tissue uptake at 1 h (%ID/g)
Please reply with the bare figure in %ID/g and do not write the unit itself.

compound: O=C(O)CSC[C@H](NC(=O)N[C@@H](CCCCNC(=O)[C@H](Cc1c2ccccc2cc2ccccc12)NC(=O)[C@H]1CC[C@H](CNC(=O)CN2CCN(CC(=O)O)CCN(CC(=O)O)CCN(CC(=O)O)CC2)CC1)C(=O)O)C(=O)O [68Ga-HTK03177, metal not drawn]
tissue uptake at 1 h, %ID/g: 0.18

## Task Suppose we examine the compound O=C(O)CN1CCN(CC(=O)O)CCN(CC(=O)NC[C@H]2CC[C@H](C(=O)N[C@@H](Cc3c4ccccc4cc4ccccc34)C(=O)NCCCC[C@H](NC(=O)N[C@@H](C[C@H](F)C(=O)O)C(=O)O)C(=O)O)CC2)CCN(CC(=O)O)CC1 [68Ga-HTK04040, metal not drawn] ; what tissue uptake at 1 h value has been reported?
## Result 0.64

====

protocol: in vivo
Parameters: species or system mice
recordedConditions: male, NODSCID 1L2RγKO, mouse, iv, total radioactivity, Lacrimal uptake
observable: tissue uptake at 4 h

compound: O=C(O)CCC[C@H](NC(=O)N[C@@H](CCCCNC(=O)[C@H](Cc1c2ccccc2cc2ccccc12)NC(=O)[C@H]1CC[C@H](CNC(=O)[C@H](CCCCNC(=O)CN2CCN(CC(=O)O)CCN(CC(=O)O)CCN(CC(=O)O)CC2)NC(=O)CNC(=O)CCCc2ccc(Cl)cc2)CC1)C(=O)O)C(=O)O [177Lu-HTK03153, metal not drawn]
tissue uptake at 4 h: 0.35 %ID/g

compound: COc1ccc(CCCC(=O)NCC(=O)N[C@@H](CCCCNC(=O)CN2CCN(CC(=O)O)CCN(CC(=O)O)CCN(CC(=O)O)CC2)C(=O)NC[C@H]2CC[C@H](C(=O)N[C@@H](Cc3c4ccccc4cc4ccccc34)C(=O)NCCCC[C@H](NC(=O)N[C@@H](COCC(=O)O)C(=O)O)C(=O)O)CC2)cc1 [177Lu-HTK04028, metal not drawn]
tissue uptake at 4 h: 0.39 %ID/g

compound: O=C(O)CCC[C@H](NC(=O)N[C@@H](CCCCNC(=O)[C@H](Cc1c2ccccc2cc2ccccc12)NC(=O)[C@H]1CC[C@H](CNC(=O)CN2CCN(CC(=O)O)CCN(CC(=O)O)CCN(CC(=O)O)CC2)CC1)C(=O)O)C(=O)O [177Lu-HTK03149, metal not drawn]
tissue uptake at 4 h: 0.03 %ID/g

## Task Fill in the blank: the reported tissue uptake at 4 h of COc1ccc(CCCC(=O)NCC(=O)N[C@@H](CCCCNC(=O)CN2CCN(CC(=O)O)CCN(CC(=O)O)CCN(CC(=O)O)CC2)C(=O)NC[C@H]2CC[C@H](C(=O)N[C@@H](Cc3c4ccccc4cc4ccccc34)C(=O)NCCCC[C@H](NC(=O)N[C@@H](CSCC(=O)O)C(=O)O)C(=O)O)CC2)cc1 [177Lu-HTK04048, metal not drawn] is ____.
## Result 0.32 %ID/g

## Task Data request, read-out tissue uptake at 4 h, for COc1ccc(CCCC(=O)NCC(=O)N[C@@H](CCCCNC(=O)CN2CCN(CC(=O)O)CCN(CC(=O)O)CCN(CC(=O)O)CC2)C(=O)NC[C@H]2CC[C@H](C(=O)N[C@@H](Cc3c4ccccc4cc4ccccc34)C(=O)NCCCC[C@H](NC(=O)N[C@@H](CCCC(=O)O)C(=O)O)C(=O)O)CC2)cc1 [177Lu-HTK03170, metal not drawn]
## Result 0.15 %ID/g
